Biological target: hERG (KCNH2) potassium channel (Homo sapiens)
Sequence (Q12809 whole entry): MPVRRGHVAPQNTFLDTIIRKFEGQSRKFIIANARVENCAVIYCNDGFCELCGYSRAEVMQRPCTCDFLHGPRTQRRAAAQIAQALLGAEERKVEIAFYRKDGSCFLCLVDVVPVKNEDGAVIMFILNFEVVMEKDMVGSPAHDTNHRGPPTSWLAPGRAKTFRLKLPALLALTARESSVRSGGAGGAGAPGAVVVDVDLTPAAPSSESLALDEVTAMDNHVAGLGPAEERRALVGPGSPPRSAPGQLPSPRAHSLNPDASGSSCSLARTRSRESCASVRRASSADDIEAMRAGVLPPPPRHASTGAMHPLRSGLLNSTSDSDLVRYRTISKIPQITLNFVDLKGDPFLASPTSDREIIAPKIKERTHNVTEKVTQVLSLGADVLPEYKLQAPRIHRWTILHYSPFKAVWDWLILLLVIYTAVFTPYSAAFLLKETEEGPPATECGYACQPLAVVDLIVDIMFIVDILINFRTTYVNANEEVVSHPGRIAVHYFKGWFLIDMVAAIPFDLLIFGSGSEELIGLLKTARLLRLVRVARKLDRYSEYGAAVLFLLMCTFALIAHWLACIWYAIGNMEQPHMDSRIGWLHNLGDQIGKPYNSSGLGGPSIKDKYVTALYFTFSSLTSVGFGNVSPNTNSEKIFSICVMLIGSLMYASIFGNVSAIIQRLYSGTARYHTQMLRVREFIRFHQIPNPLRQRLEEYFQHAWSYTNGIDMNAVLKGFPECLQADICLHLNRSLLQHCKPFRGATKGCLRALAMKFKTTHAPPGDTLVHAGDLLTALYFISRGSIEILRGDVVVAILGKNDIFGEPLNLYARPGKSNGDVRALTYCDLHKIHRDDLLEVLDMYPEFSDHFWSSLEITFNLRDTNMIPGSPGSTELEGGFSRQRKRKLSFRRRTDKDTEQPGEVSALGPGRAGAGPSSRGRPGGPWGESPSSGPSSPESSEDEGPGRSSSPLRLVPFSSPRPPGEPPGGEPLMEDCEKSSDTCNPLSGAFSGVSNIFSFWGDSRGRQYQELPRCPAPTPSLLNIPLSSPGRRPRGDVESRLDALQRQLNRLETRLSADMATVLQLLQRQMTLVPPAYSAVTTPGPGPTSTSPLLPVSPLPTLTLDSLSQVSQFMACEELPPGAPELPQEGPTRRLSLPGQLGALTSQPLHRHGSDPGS
Test: Inhibition of hERG potassium channel at 1 uM relative to control
Format: toxicity
Measured Metric: inhibition at 1 µM (%)
Give the value, in units of %, as a plain number.

Given the compound O=S(=O)(c1cccc(N2CCNCC2)c1)n1cccc1-c1cccc(F)c1 , what is its reported inhibition at 1 µM?
8

----------
Collected Ki values appear next to each entry.
Target: 5-hydroxytryptamine receptor 7 (Homo sapiens)
Sequence (P34969 whole entry): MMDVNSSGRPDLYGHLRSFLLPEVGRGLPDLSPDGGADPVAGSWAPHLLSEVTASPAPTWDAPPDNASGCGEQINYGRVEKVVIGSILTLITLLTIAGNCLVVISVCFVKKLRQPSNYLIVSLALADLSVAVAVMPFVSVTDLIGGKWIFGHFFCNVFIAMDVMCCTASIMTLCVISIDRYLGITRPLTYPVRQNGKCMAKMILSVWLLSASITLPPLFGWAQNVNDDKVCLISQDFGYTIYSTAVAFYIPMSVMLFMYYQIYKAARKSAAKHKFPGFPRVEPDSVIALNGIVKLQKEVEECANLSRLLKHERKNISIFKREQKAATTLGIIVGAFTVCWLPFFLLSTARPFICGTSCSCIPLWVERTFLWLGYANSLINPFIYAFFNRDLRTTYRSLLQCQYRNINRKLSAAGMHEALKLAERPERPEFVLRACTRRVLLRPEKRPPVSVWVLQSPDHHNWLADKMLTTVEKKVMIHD
Assay: Displacement of [3H]-5-CT from human 5-HT7 receptor extracted from HEK293 cell membrane by microbeta plate reader analysis
Type: cell membranes
# number only, unit µM dropped from output

Recorded Ki, per entry:
>  <Structure Notation>
COc1cccc(-c2cccn2S(=O)(=O)c2cccc(N3CCNCC3)c2)c1

>  <Measured Metric>
Ki

>  <Endpoint Result>
11.6

$$$$
>  <Structure Notation>
O=S(=O)(c1ccccc1)n1cccc1-c1cccc(N2CCNCC2)c1

>  <Measured Metric>
Ki

>  <Endpoint Result>
1.32

$$$$
>  <Structure Notation>
O=C(NC1CCNCC1)c1ccn(S(=O)(=O)c2cccc(Cl)c2)c1-c1cccc(F)c1

>  <Measured Metric>
Ki

>  <Endpoint Result>
84

$$$$

In the following, a different compound is considered.
Ki lookup needed for O=S(=O)(c1cccc(NC2CCNCC2)c1)n1cccc1-c1ccccc1 , thanks.
1.99

----------
Target: 5-hydroxytryptamine receptor 1A (Homo sapiens)
Sequence (P08908 whole entry): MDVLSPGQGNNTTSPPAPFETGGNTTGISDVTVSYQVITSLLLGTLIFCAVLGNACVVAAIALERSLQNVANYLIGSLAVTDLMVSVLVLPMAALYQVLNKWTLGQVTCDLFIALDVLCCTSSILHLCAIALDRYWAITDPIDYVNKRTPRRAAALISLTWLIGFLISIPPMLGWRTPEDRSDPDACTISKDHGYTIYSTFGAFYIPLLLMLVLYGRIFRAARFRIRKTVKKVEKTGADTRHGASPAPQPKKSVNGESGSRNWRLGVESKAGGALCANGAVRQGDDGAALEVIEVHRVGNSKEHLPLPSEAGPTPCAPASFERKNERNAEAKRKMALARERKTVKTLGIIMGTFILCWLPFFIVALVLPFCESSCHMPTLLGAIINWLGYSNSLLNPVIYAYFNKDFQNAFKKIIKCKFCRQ
Measured Metric: Ki
# output: number + unit

# example entries with known answers
>  <Structure Notation>
O=S(=O)(c1cccc(N2CCNCC2)c1)n1cccc1-c1cccc(F)c1

>  <Endpoint Result>
1840 nM

$$$$
>  <Structure Notation>
COc1cccc(-c2cccn2S(=O)(=O)c2cccc(N3CCNCC3)c2)c1

>  <Endpoint Result>
916 nM

$$$$

Please provide the recorded Ki for O=S(=O)(c1cccc(NC2CCNCC2)c1)n1cccc1-c1ccccc1 , tested on 5-hydroxytryptamine receptor 1A (Homo sapiens).
40600 nM

----------
Assay: in vitro
Details: rat, microsomes
Measured Metric: half-life at 1 h, 10 µM (min)
Kindly answer with a numeric value in min, unit omitted.

>  <Structure Notation>
COc1cccc(-c2cccn2S(=O)(=O)c2cccc(N3CCNCC3)c2)c1

>  <Unit Label>
min

>  <half-life at 1 h, 10 µM>
36.7

$$$$
>  <Structure Notation>
O=S(=O)(c1cccc(N2CCNCC2)c1)n1cccc1-c1ccccc1

>  <Unit Label>
min

>  <half-life at 1 h, 10 µM>
83.6

$$$$
>  <Structure Notation>
O=S(=O)(c1ccccc1)n1cccc1-c1cccc(N2CCNCC2)c1

>  <Unit Label>
min

>  <half-life at 1 h, 10 µM>
15.3

$$$$
>  <Structure Notation>
O=S(=O)(c1cccc(N2CCNCC2)c1)n1cccc1-c1cccc(F)c1

>  <Unit Label>
min

>  <half-life at 1 h, 10 µM>
49.3

$$$$

Please examine the following record next.
Find the recorded half-life at 1 h, 10 µM belonging to O=S(=O)(c1cccc(NC2CCNCC2)c1)n1cccc1-c1ccccc1 and report it.
101

----------
Experiment: Cytotoxicity against rat PC12 cells incubated for 3 hrs by MTT assay
Format: toxicity, cell-based, PC-12
Measured Metric: IC50 at 3 h
Give your result as the value with the unit written after it.

Query: IC50 at 3 h; subject: O=S(=O)(c1cccc(N2CCNCC2)c1)n1cccc1-c1cccc(F)c1
25.6 µM
